Data provenance: patent US20210230570

# tgt: Factor X, P00742
# Sequence (P00742 whole entry, looked up): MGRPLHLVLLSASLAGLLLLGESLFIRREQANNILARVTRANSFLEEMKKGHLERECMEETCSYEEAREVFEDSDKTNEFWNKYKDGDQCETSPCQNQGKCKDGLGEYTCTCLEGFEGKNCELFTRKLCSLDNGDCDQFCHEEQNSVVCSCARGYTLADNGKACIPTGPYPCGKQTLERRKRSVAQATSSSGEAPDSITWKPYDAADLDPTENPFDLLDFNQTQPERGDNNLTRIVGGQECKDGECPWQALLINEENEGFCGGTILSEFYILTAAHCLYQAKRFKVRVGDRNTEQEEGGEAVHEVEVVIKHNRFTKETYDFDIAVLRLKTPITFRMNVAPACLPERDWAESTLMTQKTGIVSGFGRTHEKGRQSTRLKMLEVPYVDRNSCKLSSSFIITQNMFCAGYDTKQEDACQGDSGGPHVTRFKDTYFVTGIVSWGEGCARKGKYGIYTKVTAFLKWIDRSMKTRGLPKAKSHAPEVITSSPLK
Kindly supply the reported % of WT (kcat/KM) values for the records listed here.
Give the number; % is assumed, so skip it.

get_value(item= FIXa-D203N/F205T/R338E (protein) chain 1: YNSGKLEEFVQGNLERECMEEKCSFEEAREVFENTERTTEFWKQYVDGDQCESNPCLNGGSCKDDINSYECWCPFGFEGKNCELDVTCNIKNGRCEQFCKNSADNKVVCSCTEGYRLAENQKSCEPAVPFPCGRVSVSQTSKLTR chain 2: VVGGEDAKPGQFPWQVVLNGKVNATCGGSIVNEKWIVTAAHCVETGVKITVVAGEHNIEETEHTEQKRNVIRIIPHHNYNAAINKYNHDIALLELDEPLVLNSYVTPICIADKEYTNIFLKFGSGYVSGWGRVFHKGRSALVLQYLRVPLVDRATCLESTKFTIYNNMFCAGFHEGGRDSCQGDSGGPHVTEVEGTSFLTGIISWGEECAMKGKYGIYTKVSRYVNWIKEKTKLT , readout=% of WT (kcat/KM)) returns 228

Notebook: FIXa-K293A/R338A/R403A (protein) chain 1: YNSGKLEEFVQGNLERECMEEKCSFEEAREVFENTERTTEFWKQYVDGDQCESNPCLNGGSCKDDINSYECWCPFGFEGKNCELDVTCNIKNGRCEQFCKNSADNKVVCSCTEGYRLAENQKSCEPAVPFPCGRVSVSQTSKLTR chain 2: VVGGEDAKPGQFPWQVVLNGKVDAFCGGSIVNEKWIVTAAHCVETGVKITVVAGEHNIEETEHTEQKRNVIRIIPHHNYNAAINKYNHDIALLELDEPLVLNSYVTPICIADAEYTNIFLKFGSGYVSGWGRVFHKGRSALVLQYLRVPLVDRATCLASTKFTIYNNMFCAGFHEGGRDSCQGDSGGPHVTEVEGTSFLTGIISWGEECAMKGKYGIYTKVSAYVNWIKEKTKLT , % of WT (kcat/KM) read as 53

Record summary for FIXa-D203N/F205T/R338A (protein) chain 1: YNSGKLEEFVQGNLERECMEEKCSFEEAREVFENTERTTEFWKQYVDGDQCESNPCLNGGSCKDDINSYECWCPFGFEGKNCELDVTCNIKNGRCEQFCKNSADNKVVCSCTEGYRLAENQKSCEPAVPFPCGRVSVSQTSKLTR chain 2: VVGGEDAKPGQFPWQVVLNGKVNATCGGSIVNEKWIVTAAHCVETGVKITVVAGEHNIEETEHTEQKRNVIRIIPHHNYNAAINKYNHDIALLELDEPLVLNSYVTPICIADKEYTNIFLKFGSGYVSGWGRVFHKGRSALVLQYLRVPLVDRATCLASTKFTIYNNMFCAGFHEGGRDSCQGDSGGPHVTEVEGTSFLTGIISWGEECAMKGKYGIYTKVSRYVNWIKEKTKLT : reported % of WT (kcat/KM) = 135

Sample FIXa-Y155F/R338E/R403E/E410N (protein) chain 1: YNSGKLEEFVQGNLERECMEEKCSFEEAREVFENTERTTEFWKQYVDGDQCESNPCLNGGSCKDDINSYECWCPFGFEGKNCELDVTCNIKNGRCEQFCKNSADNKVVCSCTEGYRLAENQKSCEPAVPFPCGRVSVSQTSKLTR chain 2: VVGGEDAKPGQFPWQVVLNGKVDAFCGGSIVNEKWIVTAAHCVETGVKITVVAGEHNIEETEHTEQKRNVIRIIPHHNYNAAINKYNHDIALLELDEPLVLNSYVTPICIADKEYTNIFLKFGSGYVSGWGRVFHKGRSALVLQYLRVPLVDRATCLRSTKFTIYNNMFCAGFHEGGEDSCQGDSGGPHVTEVEGTSFLTGIISWGEECAMKGKYGIYTKVSEYVNWIKNKTKLT ; % of WT (kcat/KM) observed: 401
